- test system: T1, StrepII-tagged Mesothelin (human mesothelin isoform 2, NP_037536, with C-terminal strepII-tag) (human, UniProt Q13421-1 296-606, limits assumed)
- T1 construct: also called Mesothelin-strep; soluble antigen
- T1 sequence (Q13421 other isoform, or with tags, fused parts or gaps limits assumed): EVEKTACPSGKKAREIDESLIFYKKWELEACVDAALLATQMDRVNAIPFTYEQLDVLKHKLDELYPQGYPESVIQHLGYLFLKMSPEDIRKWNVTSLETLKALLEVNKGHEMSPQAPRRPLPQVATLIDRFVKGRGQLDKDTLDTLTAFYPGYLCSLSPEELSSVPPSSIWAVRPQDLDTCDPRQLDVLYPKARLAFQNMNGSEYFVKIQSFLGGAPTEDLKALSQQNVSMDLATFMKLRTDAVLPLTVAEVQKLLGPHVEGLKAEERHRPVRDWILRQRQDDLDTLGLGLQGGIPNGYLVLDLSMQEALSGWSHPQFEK
- test: ELISA of 293T supernatant on coated Mesothelin, divided by the IgG titer from a sandwich ELISA
What Meso-binding/IgG was measured for each of the following?

Given the binder parental anti-Mesothelin mouse mAb MN, produced as chimeric full-length IgG1 antibody with human constant regions (antibody, V domains shown, also called VH-MN (parental mouse); parental chimeric antibody) VH: QVQLQQPGAELVKPGASMKLSCKASGYTFTSYWMHWVKQRPGQGLEWIGMIHPNSDNTIYYEKFKSKATLTVDKSSSTAYMQLSSLTSEDSAVYYCAIIITPVVPKFDYWGQGTTLTVSS VL: DIVMTQSHQFMSTSVGDRVSVTCKASHDVGTSVAWYQQKPGQSPKLLIYWASTRHTGVPDRFTGSGSGTDFTLTISNVQSEDLADYFCQQYSSYPLTFGAGTKLELK , what is its reported Meso-binding/IgG?
0.94

Entry huMN5-2 (antibody, V domains shown, No sheet says in words that huMN5a is huMN5-2) VH: QVQLQQSGAELVKPGASLKLSCKASGYTFTSYWMHWVRQAPGQGLEWIGAIHPNSDNTIYYQKFKSRFTITVDKSTSTAYMQLSSLTSEDTAVYYCAIIITPVVPKFDYWGQGTTVTVSS VL: DIVMTQSSSFMSASVGDRVSITCKASHDVGTSLAWYQQKPGQSPKLLIYWASTRQTGVPDRFSGSGSGTDFTLTISSVQSEDVATYFCQQYSSYPLTFGQGTKLEIK : reported Meso-binding/IgG = ?
0.79

Field request: Meso-binding/IgG | item: huMN5-3 (antibody, V domains shown, No sheet says in words that huMN5b is huMN5-3) VH: QVQLQQSGAELVKPGASLKLSCKASGYTFTSYWMHWVRQAPGQGLEWIGAIHPNSDNTIYYQKFKSRFTITVDKSTSTAYMQLSSLTSEDTAVYYCAIIITPVVPKFDYWGQGTTVTVSS VL: DIVMTQSPDSLAVSLGERATITCKSSHDVGTSLAWYQQKPGQPPKLLIYWASTRESGVPDRFSGSGSGTDFTLTISSLQAEDVAVYYCQQYSSYPLTFGQGTKLEIK
0.77

Consider the binder shown here: huMN3-1 (antibody, V domains shown) VH: QVQLQQSGAELVKPGASMKLSCKASGYTFTSYWMHWVRQAPGQGLEWIGAIHPNSDNTIYYQKFKSRVTLTVDKSISTAYMQLSSLTSEDTAVYYCAIIITPVVPKFDYWGQGTTVTVSS VL: DIQMTQSPSFLSASVGDRVTITCRASHDVGTSLAWYQQKPGQAPKLLIYWASTLQTGVPSRFSGSGSGTEFTLTISSLQPEDFATYYCQQYSSYPLTFGPGTTVDMK What is its recorded Meso-binding/IgG?
1.04
